Quick note: these are Kd numbers for system: human MLKL (full length) (Homo sapiens (Human), UniProt Q8NB16)
Sequence (Q8NB16 whole entry): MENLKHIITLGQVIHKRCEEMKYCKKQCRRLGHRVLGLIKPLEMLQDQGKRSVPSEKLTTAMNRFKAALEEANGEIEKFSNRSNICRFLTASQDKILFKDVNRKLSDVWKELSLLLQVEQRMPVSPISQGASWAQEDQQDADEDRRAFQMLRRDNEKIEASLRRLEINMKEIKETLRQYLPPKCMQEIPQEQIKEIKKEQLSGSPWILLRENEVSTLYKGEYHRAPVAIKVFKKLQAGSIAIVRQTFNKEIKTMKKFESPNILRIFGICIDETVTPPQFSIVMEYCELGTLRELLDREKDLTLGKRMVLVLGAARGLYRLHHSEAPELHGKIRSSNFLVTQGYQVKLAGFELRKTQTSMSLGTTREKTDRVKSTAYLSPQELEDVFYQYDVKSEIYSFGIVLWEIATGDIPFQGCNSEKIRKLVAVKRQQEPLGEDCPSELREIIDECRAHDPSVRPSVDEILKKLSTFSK

Examples with answers:
• Cc1c(-c2cnc(N)c3c(-c4ccc(NS(=O)(=O)C(F)F)c(O[C@@H](C)c5ccc(F)cc5)c4)nn(C)c23)cnn1C1CCN(C)C(C)(C)C1 (stereo partly shown) = 1 to 100 nM
• C[C@H](Oc1cc(-c2cnn3c(-c4cnn(CCO)c4)cnc(N)c23)ccc1NS(=O)(=O)C(F)F)c1ccc(F)cc1 = < 1 nM
• CCS(=O)(=O)Nc1ccc(-c2nn(C)c3c(-c4cnn(C5CCOCC5)c4)cnc(N)c23)cc1O[C@@H](C)c1ccc(F)cc1 = 1 to 100 nM

// input: 6 molecules below; output: Kd for each
1. C[C@H](Oc1cc(-c2nn(C)c3c(-c4cccc(Cl)c4)cnc(N)c23)ccc1NS(=O)(=O)C(F)F)c1ccc(F)cc1
2. C[C@H](Oc1cc(-c2nn(C)c3c(-c4ccccc4)cnc(N)c23)ccc1NS(=O)(=O)C(F)F)c1ccc(F)cc1
3. C[C@H](Oc1cc(-c2nn(C)c3c(-c4cnn(C5CCCNCC5)c4)cnc(N)c23)ccc1NS(=O)(=O)C(F)F)c1ccc(F)cc1 (stereo partly shown)
4. Cn1nc(-c2ccc(NS(=O)(=O)C(F)F)c(OCc3ccc(F)cc3)c2)c2c(N)nccc21
5. C[C@H](Oc1cc(-c2nn(C)c3c(-c4ccc5c(cnn5C)c4)cnc(N)c23)ccc1NS(=O)(=O)C(F)F)c1ccc(F)cc1
6. C[C@H](Oc1cc(-c2nn(C)c3c(-c4ccnc(C(F)(F)F)c4)cnc(N)c23)ccc1NS(=O)(=O)C(F)F)c1ccc(F)cc1

OUT:
1 to 100 nM
1 to 100 nM
< 1 nM
1 to 100 nM
1 to 100 nM
1 to 100 nM

Kindly give each listed record's Kd.
1. Cn1nc(-c2ccc(NS(=O)(=O)C(F)F)c(OCc3ccc(Cl)c(F)c3)c2)c2c(N)ncc(-c3cnn(C4CCOCC4)c3)c21
2. CNc1ncc(-n2cc(-c3cnc(N)c4c(-c5ccc(NS(=O)(=O)C(F)F)c(O[C@@H](C)c6ccc(F)cc6)c5)nn(C)c34)cn2)cn1
3. COCC(Oc1cc(-c2nn(C)c3c(-c4cnn(C5CCN(C)CC5)c4)cnc(N)c23)ccc1NS(=O)(=O)C(F)F)c1ccc(F)cc1 (stereo not shown)
4. [2H]C([2H])([2H])N1CCC(n2cc(-c3cnc(N)c4c(-c5ccc(NS(=O)(=O)C(F)F)c(O[C@@H](C)c6ccc(F)cc6)c5)nn(C)c34)cn2)CC1

OUT:
1. < 1 nM
2. 1 to 100 nM
3. 1 to 100 nM
4. < 1 nM

----------
Measured Kd (human MLKL (full length) (Homo sapiens (Human)))

Field: example entries. Status: answers known.
- CC(n1cc(-c2cnc(N)c3c(-c4ccc(NS(=O)(=O)C(F)F)c(O[C@@H](C)c5ccc(F)cc5)c4)nn(C)c23)cn1)C(F)(F)F (stereo partly drawn) [Compound 142]: < 1 nM
- C[C@H](Oc1cc(-c2nn(C)c3c(C4=CCCNC4)cnc(N)c23)ccc1NS(=O)(=O)C(F)F)c1ccc(F)cc1 [Compound 54]: 1 to 100 nM
- C[C@H](Oc1cc(-c2nn(C)c3c(-c4cnn(C5CCN(C)C(C(F)F)C5)c4)cnc(N)c23)ccc1NS(=O)(=O)C(F)F)c1ccc(F)cc1 (stereo partly drawn) [Compound 158]: 1 to 100 nM
- C[C@H](Oc1cc(-c2nn(C)c3c(-c4cnn(C5CC6CCC(C5)N6CC(F)(F)F)c4)cnc(N)c23)ccc1NS(=O)(=O)C(F)F)c1ccc(F)cc1 (stereo partly drawn) [Compound 153]: 1 to 100 nM
- CC1CN(C)CC(C)C1n1cc(-c2cnc(N)c3c(-c4ccc(NS(=O)(=O)C(F)F)c(O[C@@H](C)c5ccc(F)cc5)c4)nn(C)c23)cn1 (stereo partly drawn) [Compound 172]: 1 to 100 nM
- C[C@H](Oc1cc(-c2nn(C)c3c(-c4cnc(N5CCCC5)nc4)cnc(N)c23)ccc1NS(=O)(=O)C(F)F)c1ccc(F)cc1 [Compound 114]: 1 to 100 nM
- C[C@H](Oc1cc(-c2nn(C)c3c(-c4cnn5c4CN(C)CC5)cnc(N)c23)ccc1NS(=O)(=O)C(F)F)c1ccc(F)cc1 [Compound 91]: 100 to 10000 nM
- C[C@H](Oc1cc(-c2nn(C)c3c(C4=CCN(C)CC4)cnc(N)c23)ccc1NS(=O)(=O)C(F)F)c1ccc(F)cc1 [Compound 21]: < 1 nM
- C[C@H](Oc1cc(-c2nn(C)c3c(-c4cnn(C5CC6CCC(C5)N6C)c4)cnc(N)c23)ccc1NS(=O)(=O)C(F)F)c1ccc(F)cc1 (stereo partly drawn) [Compound 73]: < 1 nM
- Nc1n[nH]c2ccnc(-c3ccc(NS(=O)(=O)CC(F)(F)F)c(OCc4ccc(F)cc4)c3)c12 [Compound 65]: 1 to 100 nM

I need Kd for every entry listed below, if you could help.
1. Cc1ccc(-c2cnc(N)c3c(-c4ccc(NS(=O)(=O)C(F)F)c(O[C@@H](C)c5ccc(F)cc5)c4)nn(C)c23)cn1 [Compound 26]
2. C[C@H](Oc1cc(-c2nn(C)c3c(-c4cnn(C5CNC5)c4)cnc(N)c23)ccc1NS(=O)(=O)C(F)F)c1ccc(F)cc1 [Compound 94]
3. C[C@H](Oc1cc(-c2nn(C)c3c(-c4cnn(C5C[C@@H]6CN(C)C[C@@H]6C5)c4)cnc(N)c23)ccc1NS(=O)(=O)C(F)F)c1ccc(F)cc1 (stereo partly drawn) [Compound 164]
4. C[C@H](Oc1cc(-c2nn(C)c3c(-c4cnn(C(F)F)c4)cnc(N)c23)ccc1NS(=O)(=O)C(F)F)c1ccc(F)cc1 [Compound 123]
5. C[C@H](Oc1cc(-c2nn(C)c3c(-c4ccc5c(c4)n(C)c(=O)n5C)cnc(N)c23)ccc1NS(=O)(=O)C(F)F)c1ccc(F)cc1 [Compound 161]
6. C[C@H](Oc1cc(-c2nn(C)c3c(C#CC4CCN(CC(F)(F)F)CC4)cnc(N)c23)ccc1NS(=O)(=O)C(F)F)c1ccc(F)cc1 [Compound 128]
7. Cc1noc(C)c1-c1cnc(N)c2c(-c3ccc(NS(=O)(=O)C(F)F)c(O[C@@H](C)c4ccc(F)cc4)c3)nn(C)c12 [Compound 33]
8. C[C@H](Oc1cc(-c2nn(C)c3c(-c4ccc(N5CCOCC5)nc4)cnc(N)c23)ccc1NS(=O)(=O)C(F)F)c1ccc(F)cc1 [Compound 115]

OUT:
["< 1 nM", "< 1 nM", "< 1 nM", "< 1 nM", "< 1 nM", "1 to 100 nM", "1 to 100 nM", "1 to 100 nM"]

Provide the reported Kd of each entry below, same order.
1. C[C@H](Oc1cc(-c2ccnc3[nH]nc(N)c23)ccc1NS(=O)(=O)C(F)F)c1ccc(F)cc1 [Compound 72]
2. CC(C)N1CC(n2cc(-c3cnc(N)c4c(-c5ccc(NS(=O)(=O)C(F)F)c(O[C@@H](C)c6ccc(F)cc6)c5)nn(C)c34)cn2)C1 [Compound 76]
3. CC#Cc1cnc(N)c2c(-c3ccc(NS(=O)(=O)C(F)F)c(O[C@@H](C)c4ccc(F)cc4)c3)nn(C)c12 [Compound 56]
4. C[C@H](Oc1cc(-c2nn(C)c3c(-c4cnn(C5CCN(C)C6(CC6)C5)c4)cnc(N)c23)ccc1NS(=O)(=O)C(F)F)c1ccc(F)cc1 (single isomer, unassigned) [Compound 171]
5. C[C@H](Oc1cc(-c2nn(C)c3c(-c4cnn(C5C[C@H]6CNC[C@H]6C5)c4)cnc(N)c23)ccc1NS(=O)(=O)C(F)F)c1ccc(F)cc1 (stereo partly drawn) [Compound 163]

OUT:
["< 1 nM", "< 1 nM", "< 1 nM", "1 to 100 nM", "< 1 nM"]

IN: Need Kd of CCS(=O)(=O)Nc1ccc(-c2coc3c(-c4cnn(C5CCOCC5)c4)cnc(N)c23)cc1OCc1ccc(F)cc1 [Compound 3] , thanks.
OUT: < 1 nM
